System: myeloid leukemia patient primary cells Pat.5
Experiment: cell viability (% survival relative to DMSO control); higher = less cytotoxic
Settings: 10000 nM; 72 h
Please respond with reported cell viability for every item in the list.
Numbers only, in %.

cell viability for `c1cc(-c2cnn3cc(-c4ccc(OCCN5CCCCC5)cc4)cnc23)ccn1` is 10.2

Lab note: measured cell viability of `Cc1[nH]nc(C(F)(F)F)c1Cc1sc2c(c1C(=O)N1C[C@](C)(O)CO1)c(=O)n(C)c(=O)n2C(C)C` was 44.5

In plain terms, `CO[C@H]1C[C@@H]2CC[C@@H](C)[C@@](O)(O2)C(=O)C(=O)N2CCCC[C@H]2C(=O)O[C@H]([C@H](C)C[C@@H]2CC[C@@H](OC(=O)C(C)(CO)CO)[C@H](OC)C2)CC(=O)[C@H](C)/C=C(\C)[C@@H](O)[C@@H](OC)C(=O)[C@H](C)C[C@H](C)/C=C/C=C/C=C/1C` has a documented cell viability of 0.265

For record `CC(=O)Nc1nc(C)c(-c2ccc(Cl)c(S(=O)(=O)NCCO)c2)s1` the listed cell viability is 1.33

// field: cell viability; key: `CN(CCOc1ccc(Cc2sc(O)nc2O)cc1)c1ccccn1` ; value = 6.86

Just so you know, measured cell viability for C=CCN(C)CCCCCCOc1ccc(C(=O)c2ccc(Br)cc2)c(F)c1.O=C(O)/C=C/C(=O)O [Ro 48-8071 fumarate] came out at 0.265

Record summary for `O=C(/C=C/c1ccc(O)c(O)c1)OCCc1ccccc1` : reported cell viability = 21.6

Moving on to the next compound.
Short answer for `O=C1C(SCCO)=C(SCCO)C(=O)c2ccccc21` : cell viability was 2.39

====

Tested on: HL-60
Assay: cell viability (% survival relative to DMSO control); higher = less cytotoxic
Conditions: 0.01 µM; 72 h; co-treatment: GSK2194069 100 nM
Where a name gives a salt, the structure may show the parent alone.
OBSERVATION_TYPE: cell viability

What the record says about `CO[C@H]1C[C@@H]2CC[C@@H](C)[C@@](O)(O2)C(=O)C(=O)N2CCCC[C@H]2C(=O)O[C@H]([C@H](C)C[C@@H]2CC[C@@H](OCCO)[C@H](OC)C2)CC(=O)[C@H](C)/C=C(\C)[C@@H](O)[C@@H](OC)C(=O)[C@H](C)C[C@H](C)/C=C/C=C/C=C/1C` : cell viability is 88.9%

The compound listed as `N[C@@H](CC(=O)N1CCn2c(nnc2C(F)(F)F)C1)Cc1cc(F)c(F)cc1F` shows cell viability equal to 104%

Per the records, this compound ( `O=c1cc(-c2ccccc2)oc2c1ccc1ccccc12` ) has cell viability equal to 101%

cell viability reading for CCN(CCO)CCCC(C)Nc1ccnc2cc(Cl)ccc12 (stereo not given) [Hydroxychloroquine sulfate] : 101%

cell viability reported for this compound `N#Cc1ccc(N(Cc2ccc(Br)cc2)n2cnnc2)cc1` : 81%

Can you give me cell viability for all of these, one by one?
1. CCc1oc2ccccc2c1C(=O)c1cc(Br)c(O)c(Br)c1
2. C=CCN(C)CCCCCCOc1ccc(C(=O)c2ccc(Br)cc2)c(F)c1.O=C(O)/C=C/C(=O)O [Ro 48-8071 fumarate]
3. C[C@H]1c2cccc(O)c2C(=O)C2C(=O)[C@]3(O)C(=O)C(C(N)=O)C(=O)[C@@H](N(C)C)[C@@H]3[C@@H](O)[C@@H]21 (stereo not given in full)
4. COc1ccc2c(NC(=O)Nc3cccc(C(F)(F)F)n3)ccnc2c1

104%
68.3%
96%
95.5%

Working through the 3 compounds below one at a time, give cell viability for each.
1. O=C([O-])CC(O)(C(=O)[O-])C(O)C(=O)[O-].[K+].[K+].[K+] (stereo not given) [Hydroxycitrate]
2. CCOC(=O)c1ccc(-c2ccc(OC(=O)N(C)Cc3cccc(-c4ccncc4)c3)cc2)cc1
3. CCCc1nc(C)c2c(=O)nc(-c3cc(S(=O)(=O)N4CCN(CC)CC4)ccc3OCC)[nH]n12

99.1%
96%
98.3%

Would you mind giving cell viability for every compound in the list below?
1. CCN(CC)C(=S)SSC(=S)N(CC)CC
2. CCn1c(=Cc2cccc[n+]2CC)sc(=C2Sc3ccccc3N2C)c1=O
3. CC[C@H](C)[C@H](N)C(=O)N1CCSC1

95.7%
104%
100%

====

Exercise: state measured area under dose-response curve for each of the compounds provided.
Test system: myeloid leukemia patient primary cells Pat.8
Test: area under dose-response curve (viability, 1 nM-10 uM) (fraction (0-1)); higher = more sensitive
Conditions: 72 h

The examples below pair each entry with its known result.
Quick note, area under dose-response curve for `Cc1c2c(=O)n(-c3ccccc3Cl)[nH]c2cc(=O)n1Cc1ccccn1` landed at < 0.0301

// area under dose-response curve value for CO[C@H]1C[C@@H]2CC[C@@H](C)[C@@](O)(O2)C(=O)C(=O)N2CCCC[C@H]2C(=O)O[C@H]([C@H](C)C[C@@H]2CC[C@@H](OC(=O)C(C)(CO)CO)[C@H](OC)C2)CC(=O)[C@H](C)/C=C(\C)[C@@H](O)[C@@H](OC)C(=O)[C@H](C)C[C@H](C)/C=C/C=C/C=C/1C [Temsirolimus] : < 0.0301

Looking up `O=C1C(SCCO)=C(SCCO)C(=O)c2ccccc21` , I found its area under dose-response curve recorded as 0.174

GET /value?item= CN(CCOc1ccc(Cc2sc(O)nc2O)cc1)c1ccccn1 [Rosiglitazone] &field=area under dose-response curve returns < 0.0301

Entry Cc1cc2c(C(C)C)c(O)c(O)c(C=O)c2c(O)c1-c1c(C)cc2c(C(C)C)c(O)c(O)c(C=O)c2c1O [Gossypol] , area under dose-response curve reported as 0.123

Continue with the next compound.
In plain terms, O=C(O)CC[N+](=O)[O-] [3-nitropropionic acid] has a documented area under dose-response curve of < 0.0301

====

System: SHI-1
Experiment: cell viability (% survival relative to DMSO control, bortezomib = 0%); higher = less cytotoxic
Settings: 100 nM; 72 h
Provide the recorded cell viability for the entries that follow.
One number for each entry, in %.

Consider the worked cases shown below.
Input C[C@H]1c2cccc(O)c2C(=O)C2C(=O)[C@]3(O)C(=O)C(C(N)=O)C(=O)[C@@H](N(C)C)[C@@H]3[C@@H](O)[C@@H]21 (stereo not given in full) . Output cell viability: 112

Looking up `Cc1nc(-c2ccccc2)sc1C(=O)Nc1ccc(S(N)(=O)=O)cc1` , I see its cell viability listed as 104

Quick note, cell viability for N#C/C(=C\c1ccc(O)cc1)C(=O)O [alpha-cyano-4-hydroxycinnamic acid] landed at 95.1

Looking up `COc1ccc2c(NC(=O)Nc3cccc(C(F)(F)F)n3)ccnc2c1` , I see its cell viability listed as 104

For this compound ( `CN(CCCOc1ccc(Cc2ccccc2)cc1)CCC(=O)O` ), measured cell viability is 116

Sample `N#Cc1ccc(N(Cc2ccc(Br)cc2)n2cnnc2)cc1` ; cell viability observed: 95.7

// each listed compound needs a value for cell viability
1. O=C(O)CC[N+](=O)[O-]
2. CO[C@H]1C[C@@H]2CC[C@@H](C)[C@@](O)(O2)C(=O)C(=O)N2CCCC[C@H]2C(=O)O[C@H]([C@H](C)C[C@@H]2CC[C@@H](OC(=O)C(C)(CO)CO)[C@H](OC)C2)CC(=O)[C@H](C)/C=C(\C)[C@@H](O)[C@@H](OC)C(=O)[C@H](C)C[C@H](C)/C=C/C=C/C=C/1C
3. COC(=O)c1cc2c(C(F)(F)F)cc(-c3ccccc3)cc2n1O
4. CC/C=C\C[C@H]1C(=O)CC[C@@H]1CC(=O)OC [Methyl jasmonate]
5. O=C([O-])CC(O)(C(=O)[O-])C(O)C(=O)[O-].[K+].[K+].[K+] (stereo not given) [Hydroxycitrate]
6. N[C@@H](CC(=O)N1CCn2c(nnc2C(F)(F)F)C1)Cc1cc(F)c(F)cc1F
7. Cc1ccc(-c2cc(C(F)(F)F)nn2-c2ccc(S(N)(=O)=O)cc2)cc1

1. 97.5
2. 80.4
3. 97.3
4. 90.8
5. 92
6. 105
7. 95.6

Hi, could you look up cell viability for each item in my list?
1. CCCCCN(C)CCC(O)(P(=O)(O)O)P(=O)(O)O [Ibandronate]
2. CCc1c(C(=O)C(N)=O)c2c(OCC(=O)O)cccc2n1Cc1ccccc1

1: 103; 2: 106

====

Tested on: BV-173
Conditions: 72 h
OBSERVATION_TYPE: IC50 (cell viability)

Guide cases for IC50 (cell viability), answers given:
Sure, the documented IC50 (cell viability) for CN(Cc1cnc2nc(N)nc(N)c2n1)c1ccc(C(=O)N[C@@H](CCC(=O)O)C(=O)O)cc1 [Methotrexate] is 0.0323 µM

Given item `Cc1ccc(-c2cc(C(F)(F)F)nn2-c2ccc(S(N)(=O)=O)cc2)cc1` , the value recorded as its IC50 (cell viability) is > 10 µM

Quick note, IC50 (cell viability) for `O=c1c(-c2ccc(O)cc2)coc2cc(O[C@@H]3O[C@H](CO)[C@@H](O)[C@H](O)[C@H]3O)ccc12` landed at > 10 µM

`CCc1c(C(=O)C(N)=O)c2c(OCC(=O)O)cccc2n1Cc1ccccc1` has a reported IC50 (cell viability) of > 10 µM

Measured IC50 (cell viability) of `COc1ccc2c(NC(=O)Nc3cccc(C(F)(F)F)n3)ccnc2c1` : > 10 µM

The compound identified as `CCOC(=O)c1sc(NC(=O)c2ccco2)c(SC#N)c1C` registered its IC50 (cell viability) at > 10 µM

Below are 4 compounds. Give each one its IC50 (cell viability).
1. C[C@H]1c2cccc(O)c2C(=O)C2C(=O)[C@]3(O)C(=O)C(C(N)=O)C(=O)[C@@H](N(C)C)[C@@H]3[C@@H](O)[C@@H]21 (stereo partly drawn)
2. CCc1oc2ccccc2c1C(=O)c1cc(Br)c(O)c(Br)c1
3. C=CC(=O)c1ccc(O)cc1
4. CCCCCOC(=O)Nc1nc(=O)n([C@@H]2O[C@H](C)[C@@H](O)[C@H]2O)cc1F

1. > 10 µM
2. > 10 µM
3. 3.1 µM
4. > 10 µM

The measured values listed here are drawn from the supplement of paper PMC8671470.
